- testedTarget: IDH1 R132H (Homo sapiens (Human), UniProt O75874, R132H)
- Sequence (O75874 whole entry R132H): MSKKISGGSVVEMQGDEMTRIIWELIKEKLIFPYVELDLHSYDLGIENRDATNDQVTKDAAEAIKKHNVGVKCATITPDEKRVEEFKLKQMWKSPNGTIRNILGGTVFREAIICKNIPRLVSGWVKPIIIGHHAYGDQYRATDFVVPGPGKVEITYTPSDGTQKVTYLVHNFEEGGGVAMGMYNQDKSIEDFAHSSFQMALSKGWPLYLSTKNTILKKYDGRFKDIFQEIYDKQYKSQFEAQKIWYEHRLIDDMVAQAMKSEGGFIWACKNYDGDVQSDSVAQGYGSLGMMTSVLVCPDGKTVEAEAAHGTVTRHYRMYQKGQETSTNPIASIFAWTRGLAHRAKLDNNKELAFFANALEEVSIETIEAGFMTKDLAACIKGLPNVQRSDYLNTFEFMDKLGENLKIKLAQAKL
- testMethodNotes: Effect on the enzyme activity of IDH1 at the molecular level (NADPH consumption, diaphorase/resazurin)
- experimentalParameters: α-KG 1 mM, NADPH 4 μM, 60 min room temperature
Catalogue of compounds with associated IC50

Q: Please report the measured IC50 for CC(C)c1cccc(-n2cnc([C@H](C)Nc3nccc(N4C(=O)N(C)C[C@@H]4C(C)C)n3)c2)c1 [Compound 54]
A: 100 to 1000 nM

Q: Report measured IC50; entry is CC(C)[C@H]1CN(C)C(=O)N1c1ccnc(NC2(c3ncn(-c4cccc(C5CC5)c4)n3)CC2)n1 [Compound 64]
A: 100 to 1000 nM

Q: For the compound CC(C)[C@H]1CN(C)C(=O)N1c1ccnc(N[C@@H](C)c2ncn(-c3ccc(Cl)cc3)n2)n1 [Compound 70] , give its measured IC50 value.
A: 100 to 1000 nM

Q: For the compound CC(C)[C@H]1C(C)N(C)C(=O)N1c1ccnc(N[C@@H](C)c2cn(-c3ccc(C(F)(F)F)cc3)cn2)n1 (single isomer, unassigned) [Compound 95] , report IC50.
A: < 100 nM

Q: State its IC50 for this compound: CC(C)[C@H]1CNC(=O)N1c1ccnc(NC2(c3cn(-c4ccc(Cl)cc4)cn3)CC2)n1 [Compound 8]
A: 100 to 1000 nM

Q: Given CC(C)[C@H]1CN(C)C(=O)N1c1ccnc(NC2(c3cn(-c4cc(Cl)cc(C5CC5)c4)cn3)CC2)n1 [Compound 48] , respond with its IC50.
A: < 100 nM

Q: Note IC50 for the compound shown: CC(C)[C@H]1CN(C)C(=O)N1c1ccnc(NC2(c3cn(-c4cccc(C5CC5)c4)c(Br)n3)CC2)n1 [Compound 67]
A: 100 to 1000 nM

Q: # return recorded IC50 for input CC(C)[C@@H]1N(c2ccnc(N[C@@H](C)c3cn(-c4ccc(Cl)cc4)cn3)n2)C(=O)NC12CC2 [Compound 99]
A: 100 to 1000 nM

Q: State its IC50 for this compound: CC(C)[C@H]1CN(C)C(=O)N1c1ccnc(N[C@@H](C)c2cn(C3CCC(F)(F)CC3)cn2)n1 [Compound 75]
A: 100 to 1000 nM

Q: Assign IC50 to the following record: CC(C)[C@H]1CN(C)C(=O)N1c1ccnc(NC2(c3cn(-c4ccc(Cl)cc4)cn3)CC2)n1 [Compound 19]
A: 100 to 1000 nM

Q: Give reported IC50 value for CC(C)[C@H]1CN(C)C(=O)N1c1ccnc(NC2(c3cn(CC4CCCC4)cn3)CC2)n1 [Compound 40]
A: 100 to 1000 nM

Q: Given the compound CC(C)[C@H]1CN(C)C(=O)N1c1ccnc(NC2(c3ncn(-c4cccc(C5CC5)c4)c3C#N)CC2)n1 [Compound 69] , write its reported IC50.
A: 100 to 1000 nM

Q: Supply IC50 value. Item: CC(C)[C@H]1C(C)N(C)C(=O)N1c1ccnc(N[C@@H](C)c2cn(-c3ccc(C(F)(F)F)cc3)cn2)n1 (single isomer, unassigned) [Compound 94]
A: < 100 nM

Q: Output IC50 of CC(C)[C@H]1CN(C2CC2)C(=O)N1c1ccnc(N[C@@H](C)c2cn(-c3ccc(Cl)cc3)cn2)n1 [Compound 73]
A: 100 to 1000 nM

The reported numbers originate from patent US10682352B2.
